System: 677734-321-R-J1-PDC complex spheroid viability
Test: Anticancer human tumor 677734-321-R-J1-PDC patient-derived soft tissue sarcoma cell line growth inhibition [POLQ]
Conditions: second compound 10 µM; first compound 0.0316 µM; stronger effect = lower value
Each entry below carries its recorded viability, T/C.
The figure you give is taken to be in %; do not add the unit.

Please review the following examples before continuing.
MOLECULE	viability, T/C, %
C#Cc1c(F)ccc2cc(O)cc(-c3ncc4c(N5CC6CCC(C5)N6)nc(OCC56CCCN5CC(F)C6)nc4c3F)c12 (stereo not given) + Nc1ccc(C#CCN(C(=O)Cc2ncc(C(F)(F)F)cc2C(F)(F)F)c2ccc(F)cc2)nn1	107
COc1cc2cc(C(=O)CCC(=O)O)sc2cc1OC + Nc1ccc(C#CCN(C(=O)Cc2ncc(C(F)(F)F)cc2C(F)(F)F)c2ccc(F)cc2)nn1	104
Nc1ccn(C2OC(CO)C(O)C2(F)F)c(=O)n1 (stereo not given) + Cc1cccc(N(C)C(=O)C2C(O)CCN2c2nc(C)cc(C(F)(F)F)c2C#N)c1	39.8
CC1COCCN1c1cc(C2(S(C)(=N)=O)CC2)nc(-c2ccnc3[nH]ccc23)n1 (stereo not given) + COC1C(OC(N)=O)C(O)C(Oc2ccc3c(O)c(NC(=O)c4ccc(O)c(CC=C(C)C)c4)c(=O)oc3c2C)OC1(C)C	108

Now, please, on to the next molecule.
Lookup: Param readout= viability, T/C; system= 677734-321-R-J1-PDC complex spheroid viability; entry= C=CC(=O)N1CCN(c2nc(=O)n(-c3c(C)ccnc3C(C)C)c3nc(-c4c(O)cccc4F)c(F)cc23)C(C)C1 (stereo not given) + Cc1cccc(N(C)C(=O)C2C(O)CCN2c2nc(C)cc(C(F)(F)F)c2C#N)c1 ; returns value.
Found: 105

----------
System: 677734-321-R-J1-PDC complex spheroid viability
Assay: Anticancer human tumor 677734-321-R-J1-PDC cell line growth inhibition [POLQ];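 also: spheroids exposed to compounds for one week; 100% = vehicle DMSO treated spheroids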
Conditions: second compound 0.316 µM; first compound 3.16 µM; stronger effect = lower value
QUANTITY NAME: viability, T/C (%)
The figure you give is taken to be in %; do not add the unit.

Please review the following examples before continuing.
COMPOUND	UNIT ANNOTATION	viability, T/C
CC(C)n1c(=O)n(C)c2cnc3cc(F)c(-c4ccc(OCCCN5CCCCC5)nc4)cc3c21 + Nc1ccc(C#CCN(C(=O)Cc2ncc(C(F)(F)F)cc2C(F)(F)F)c2ccc(F)cc2)nn1	%	84.9
O=C(Nc1ccc(O)c(NS(=O)(=O)c2ccc(F)cc2)c1)c1ccc(-c2ccccc2)cc1 + Cc1cccc(N(C)C(=O)C2C(O)CCN2c2nc(C)cc(C(F)(F)F)c2C#N)c1	%	58
O=C(c1cc(Cc2n[nH]c(=O)c3ccccc23)ccc1F)N1CCN(C(=O)C2CC2)CC1 + COC1C(OC(N)=O)C(O)C(Oc2ccc3c(O)c(NC(=O)c4ccc(O)c(CC=C(C)C)c4)c(=O)oc3c2C)OC1(C)C	%	111
O=c1[nH]cc(F)c(=O)[nH]1 + Cc1cccc(N(C)C(=O)C2C(O)CCN2c2nc(C)cc(C(F)(F)F)c2C#N)c1	%	49.8

Now, please, on to the next compound.
Lookup: Param readout= viability, T/C; system= 677734-321-R-J1-PDC complex spheroid viability; entry= CCCS(=O)(=O)Nc1ccc(F)c(C(=O)c2c[nH]c3ncc(-c4ccc(Cl)cc4)cc23)c1F + Nc1ccc(C#CCN(C(=O)Cc2ncc(C(F)(F)F)cc2C(F)(F)F)c2ccc(F)cc2)nn1 ; returns value.
Found: 87.9

----------
Test system: 677734-321-R-J1-PDC complex spheroid viability
Experiment: Anticancer human tumor 677734-321-R-J1-PDC cell line growth inhibition [POLQ];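 also: spheroids exposed to compounds for one week; 100% = vehicle DMSO treated spheroids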
Conditions: second compound 3.16 µM; first compound 1 µM; stronger effect = lower value
Each entry below carries its recorded viability, T/C.
The figure you give is taken to be in %; do not add the unit.

COMPOUND	viability, T/C, %
CNCc1ccc(-c2[nH]c3cc(F)cc4c3c2CCNC4=O)cc1 + COC1C(OC(N)=O)C(O)C(Oc2ccc3c(O)c(NC(=O)c4ccc(O)c(CC=C(C)C)c4)c(=O)oc3c2C)OC1(C)C	110
CC(C)n1c(=O)n(C)c2cnc3cc(F)c(-c4ccc(OCCCN5CCCCC5)nc4)cc3c21 + COC1C(OC(N)=O)C(O)C(Oc2ccc3c(O)c(NC(=O)c4ccc(O)c(CC=C(C)C)c4)c(=O)oc3c2C)OC1(C)C	115
CC1COCCN1c1cc(C2(S(C)(=N)=O)CC2)nc(-c2ccnc3[nH]ccc23)n1 (stereo not given) + Cc1cccc(N(C)C(=O)C2C(O)CCN2c2nc(C)cc(C(F)(F)F)c2C#N)c1	90.6

Lookup: Param readout= viability, T/C; system= 677734-321-R-J1-PDC complex spheroid viability; entry= C=CCn1c(=O)c2cnc(Nc3ccc(N4CCN(C)CC4)cc3)nc2n1-c1cccc(C(C)(C)O)n1 + Nc1ccc(C#CCN(C(=O)Cc2ncc(C(F)(F)F)cc2C(F)(F)F)c2ccc(F)cc2)nn1 ; returns value.
Found: 35.9

Lookup: Param readout= viability, T/C; system= 677734-321-R-J1-PDC complex spheroid viability; entry= CCc1cc2c(N3CCc4c(cc(Cn5ccnc5)cc4-c4cn(C)nc4C(F)(F)F)C3=O)cc(C)nc2c(OC)n1 + Nc1ccc(C#CCN(C(=O)Cc2ncc(C(F)(F)F)cc2C(F)(F)F)c2ccc(F)cc2)nn1 ; returns value.
Found: 95.2

----------
System: 677734-321-R-J1-PDC complex spheroid viability
Experiment: Anticancer human tumor 677734-321-R-J1-PDC cell line growth inhibition [POLQ];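 also: spheroids exposed to compounds for one week; 100% = vehicle DMSO treated spheroids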
Settings: second compound 10 µM; first compound 0.0316 µM; stronger effect = lower value
QUANTITY NAME: viability, T/C (%)
The figure you give is taken to be in %; do not add the unit.

Please review the following examples before continuing.
COMPOUND	QUANTITY NAME	VALUE REPORTED
CCCS(=O)(=O)Nc1ccc(F)c(C(=O)c2c[nH]c3ncc(-c4ccc(Cl)cc4)cc23)c1F + Cc1cccc(N(C)C(=O)C2C(O)CCN2c2nc(C)cc(C(F)(F)F)c2C#N)c1	viability, T/C	80.1
O=C(c1cc(Cc2n[nH]c(=O)c3ccccc23)ccc1F)N1CCN(C(=O)C2CC2)CC1 + COC1C(OC(N)=O)C(O)C(Oc2ccc3c(O)c(NC(=O)c4ccc(O)c(CC=C(C)C)c4)c(=O)oc3c2C)OC1(C)C	viability, T/C	118
COc1cccc2c1C(=O)c1c(O)c3c(c(O)c1C2=O)CC(O)(C(=O)CO)CC3OC1CC(N)C(O)C(C)O1 (stereo not given) + COC1C(OC(N)=O)C(O)C(Oc2ccc3c(O)c(NC(=O)c4ccc(O)c(CC=C(C)C)c4)c(=O)oc3c2C)OC1(C)C	viability, T/C	68.8
Cn1ncnc1[C@H]1c2n[nH]c(=O)c3cc(F)cc(c23)N[C@@H]1c1ccc(F)cc1 + COC1C(OC(N)=O)C(O)C(Oc2ccc3c(O)c(NC(=O)c4ccc(O)c(CC=C(C)C)c4)c(=O)oc3c2C)OC1(C)C	viability, T/C	99.4

Lookup: Need viability, T/C, item O=c1[nH]cc(F)c(=O)[nH]1 + COC1C(OC(N)=O)C(O)C(Oc2ccc3c(O)c(NC(=O)c4ccc(O)c(CC=C(C)C)c4)c(=O)oc3c2C)OC1(C)C
Found: 105

----------
Each entry below carries its recorded viability, T/C.
System: 677734-321-R-J1-PDC complex spheroid viability
Assay: Anticancer human tumor 677734-321-R-J1-PDC cell line growth inhibition [POLQ];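 also: spheroids exposed to compounds for one week; 100% = vehicle DMSO treated spheroids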
Conditions: second compound 0.0316 µM; first compound 0.0316 µM; stronger effect = lower value
The figure you give is taken to be in %; do not add the unit.

COMPOUND	UNIT ANNOTATION	VALUE REPORTED
COc1cccc(OCCCN)c1-c1cc(Nc2cnc(C#N)cn2)n[nH]1 + Cc1cccc(N(C)C(=O)C2C(O)CCN2c2nc(C)cc(C(F)(F)F)c2C#N)c1	%	6.8
CC1COCCN1c1cc(C2(S(C)(=N)=O)CC2)nc(-c2ccnc3[nH]ccc23)n1 (stereo unspecified) + Nc1ccc(C#CCN(C(=O)Cc2ncc(C(F)(F)F)cc2C(F)(F)F)c2ccc(F)cc2)nn1	%	98.3
CC1COCCN1c1cc(-c2ccnn2C)c2ccnc(-c3ccn[nH]3)c2n1 (stereo unspecified) + Nc1ccc(C#CCN(C(=O)Cc2ncc(C(F)(F)F)cc2C(F)(F)F)c2ccc(F)cc2)nn1	%	74.6

Lookup: Param readout= viability, T/C; system= 677734-321-R-J1-PDC complex spheroid viability; entry= CC1COCCN1c1cc(C2(O)CC3CCC(C2)O3)c2cnn(-c3ccn[nH]3)c2n1 (stereo unspecified) + Cc1cccc(N(C)C(=O)C2C(O)CCN2c2nc(C)cc(C(F)(F)F)c2C#N)c1 ; returns value.
Found: 76.5

Lookup: Param readout= viability, T/C; system= 677734-321-R-J1-PDC complex spheroid viability; entry= CNCc1ccc(-c2[nH]c3cc(F)cc4c3c2CCNC4=O)cc1 + Nc1ccc(C#CCN(C(=O)Cc2ncc(C(F)(F)F)cc2C(F)(F)F)c2ccc(F)cc2)nn1 ; returns value.
Found: 90.2

Lookup: Param readout= viability, T/C; system= 677734-321-R-J1-PDC complex spheroid viability; entry= O=C(c1cc(Cc2n[nH]c(=O)c3ccccc23)ccc1F)N1CCN(C(=O)C2CC2)CC1 + Nc1ccc(C#CCN(C(=O)Cc2ncc(C(F)(F)F)cc2C(F)(F)F)c2ccc(F)cc2)nn1 ; returns value.
Found: 97
